Data origin, for the record: patent US20260327243A1

test system: A549 cells; assay: Cell Viability Assay, A549; assay type: cell-based; details: A549; human lung carcinoma; 72 h; CellTiter-Glo
The entries below come with measured IC50 values attached.

>  <molecule>
C=CC(=O)N1CCN([C@@H]2CN(c3cc(N4CC[C@]5(C[C@H]4C)OC4(COC4)c4nccc(C)c45)nc(C(F)(F)F)n3)[C@@H]2C)CC1 [Compound 3-104]

>  <measured.result>
> 5 µM

$$$$

Item: C=CC(=O)N1CCN(C2CN(c3cc(N4CCC5(CCC(=O)N5C)CC4)nc(C(F)(F)F)c3C#N)C2)CC1 [Compound 3-075] | IC50: > 5 µM

Item: C=CC(=O)N1CCN([C@@H]2CN(c3cc(N4CCC5(CC4)OCC=C5C)nc(C(F)(F)F)n3)[C@@H]2C)CC1 [Compound 3-061] | IC50: > 5 µM
